Measured values drawn from ChEMBL document CHEMBL4811231 for this set.

Assay Remarks: Selectivity index, ratio of CC50 for cytotoxicity against human 293T/ACE2 cells to IC50 for SARS-CoV-2 spike glycoprotein S inhibition
Assay type: toxicity, cell-based
Setup Conditions: read-out: Selectivity Index
Readout Name: selectivity ratio

Look at this compound and give its reported selectivity ratio. "C[C@@H]1O[C@@H](O[C@H]2[C@H](O[C@H]3CC[C@]4(C)[C@H]5CC=C6[C@@H]7CC(C)(C)CC[C@]7(C(=O)OCc7ccccc7)CC[C@@]6(C)[C@]5(C)CC[C@H]4C3(C)C)O[C@H](CO)[C@@H](O[C@@H]3O[C@@H](C)[C@H](O)[C@@H](O)[C@H]3O)[C@@H]2O)[C@H](O)[C@H](O)[C@H]1O"
1.29

Query "COc1ccc(NC(=O)[C@]23CCC(C)(C)C[C@H]2C2=CC[C@@H]4[C@@]5(C)CC[C@H](O[C@@H]6O[C@H](CO)[C@@H](O[C@@H]7O[C@@H](C)[C@H](O)[C@@H](O)[C@H]7O)[C@H](O)[C@H]6O[C@@H]6O[C@@H](C)[C@H](O)[C@@H](O)[C@H]6O)C(C)(C)[C@@H]5CC[C@@]4(C)[C@]2(C)CC3)cc1" next
> 10

Now this one: "C[C@@H]1O[C@@H](O[C@H]2[C@H](O[C@H]3CC[C@]4(C)[C@H]5CC=C6[C@@H]7CC(C)(C)CC[C@]7(C(=O)NCCc7ccccc7)CC[C@@]6(C)[C@]5(C)CC[C@H]4C3(C)C)O[C@H](CO)[C@@H](O[C@@H]3O[C@@H](C)[C@H](O)[C@@H](O)[C@H]3O)[C@@H]2O)[C@H](O)[C@H](O)[C@H]1O"
> 13.6
